Target: UniProt:P07333
Sequence (P07333 20-972): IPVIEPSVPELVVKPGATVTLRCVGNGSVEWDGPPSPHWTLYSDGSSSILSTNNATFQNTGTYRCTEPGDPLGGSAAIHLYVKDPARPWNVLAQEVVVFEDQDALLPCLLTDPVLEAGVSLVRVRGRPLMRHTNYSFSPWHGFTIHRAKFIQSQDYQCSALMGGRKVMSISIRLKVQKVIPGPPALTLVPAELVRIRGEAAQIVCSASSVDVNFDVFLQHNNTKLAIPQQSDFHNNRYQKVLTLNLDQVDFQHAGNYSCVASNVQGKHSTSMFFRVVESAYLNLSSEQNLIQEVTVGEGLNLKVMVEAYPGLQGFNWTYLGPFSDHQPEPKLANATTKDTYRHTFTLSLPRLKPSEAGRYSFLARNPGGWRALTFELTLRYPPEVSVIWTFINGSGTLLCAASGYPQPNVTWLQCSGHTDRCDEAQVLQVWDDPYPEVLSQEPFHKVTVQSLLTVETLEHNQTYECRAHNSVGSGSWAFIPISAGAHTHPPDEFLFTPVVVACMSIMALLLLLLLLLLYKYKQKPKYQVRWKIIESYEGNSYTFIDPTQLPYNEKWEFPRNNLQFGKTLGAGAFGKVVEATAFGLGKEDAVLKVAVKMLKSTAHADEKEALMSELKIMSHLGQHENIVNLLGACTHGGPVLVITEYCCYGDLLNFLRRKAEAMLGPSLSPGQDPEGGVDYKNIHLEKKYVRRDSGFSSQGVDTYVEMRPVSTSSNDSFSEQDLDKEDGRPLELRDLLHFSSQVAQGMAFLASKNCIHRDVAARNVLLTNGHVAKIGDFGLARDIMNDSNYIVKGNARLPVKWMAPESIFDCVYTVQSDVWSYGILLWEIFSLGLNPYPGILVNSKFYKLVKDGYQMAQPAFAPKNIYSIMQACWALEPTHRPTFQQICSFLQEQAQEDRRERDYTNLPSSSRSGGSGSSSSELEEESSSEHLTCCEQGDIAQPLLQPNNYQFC
Assay: KINOMEscan competition binding assay for CSF1R
Parameters: DNA tag for qPCR (not a peptide); host or cells: E. coli/T7 phage or HEK-293
Conditions: @ 0.1 uM; read-out: CSF1R kinase binding activity, Percent (%) inhibition
Quantity Kind: inhibition at 0.1 µM (%)
Numbers only, in %.

Compound | System | inhibition at 0.1 µM, %
CCCn1cc(OCCOC)c(C(=O)Nc2ccc(Oc3ccnc4cc(OC)c(OC)cc34)cn2)n1 [Compound 105] | UniProt:P07333 | 91

List reported inhibition at 0.1 µM for each of these compounds:
1. COc1cc2nccc(Oc3ccc(NC(=O)c4nn(C5CC5)cc4OCC4CNC4)nn3)c2cc1OC [Compound 172]
2. CCCn1cc(OCC(F)F)c(C(=O)Nc2ccc(Oc3ccnc4cc(OC)c(OC)cc34)cn2)n1 [Compound 12]
3. CNCCn1cc(OCC(F)(F)F)c(C(=O)Nc2ccc(Oc3ccnc4cc(OC)c(OC)cc34)c(F)c2)n1 [Compound 155]

1: 36; 2: 98; 3: 22
